Let's look at some compounds and their measured pEC50.
# ASSAY TEXT: Inhibition of ROCK-2 in human GTM3 cells measured up to 2 days by cell impedance assay
Conceptually, pEC50 converts a concentration in mol/L into minus its log10.

Given `c1cc2[nH]ncc2cc1-c1cncc(N2CCCNCC2)n1` , state its recorded pEC50.
6.59

Given CN(C)CC(O)CN1CCN(c2nc(-c3ccncc3)cnc2N2CCCC2)CC1 (configuration not stated) , state its recorded pEC50.
5.82

----------
# ASSAY TEXT: Inhibition of ROCK-2 in human GTM3 cells measured up to 2 days by cell impedance assay
pEC50: −log10 of the molar value.
Label rule, in plain words: pEC50 of 6 and up is true (1), under 6 is false (0).

Is pEC50 for `Cc1n[nH]c2ccc(-c3cncc(N4CCCNCC4)n3)cc12` at or above 6?
true (1)

Is pEC50 for CC(=O)NCC(O)CN1CCN(c2nc(-c3ccncc3)cnc2N2CCCC2)CC1 (stereo not given) at or above 6?
false (0)

API: the following record is the query input.
Is pEC50 for `c1nc(N2CCCC2)c(N2CCCNCC2)nc1-c1cc2cn[nH]c2cn1` at or above 6?
true (1)
